Hi there, I'd appreciate the recorded IC50 for every entry that follows.
Biological target: HCV NS5B polymerase 1a-H77-C316Y (Hepatitis C virus genotype 1a, UniProt P27958, C2736Y)
Construct: six-histidine tag
Sequence (P27958 2421-2990 C2736Y): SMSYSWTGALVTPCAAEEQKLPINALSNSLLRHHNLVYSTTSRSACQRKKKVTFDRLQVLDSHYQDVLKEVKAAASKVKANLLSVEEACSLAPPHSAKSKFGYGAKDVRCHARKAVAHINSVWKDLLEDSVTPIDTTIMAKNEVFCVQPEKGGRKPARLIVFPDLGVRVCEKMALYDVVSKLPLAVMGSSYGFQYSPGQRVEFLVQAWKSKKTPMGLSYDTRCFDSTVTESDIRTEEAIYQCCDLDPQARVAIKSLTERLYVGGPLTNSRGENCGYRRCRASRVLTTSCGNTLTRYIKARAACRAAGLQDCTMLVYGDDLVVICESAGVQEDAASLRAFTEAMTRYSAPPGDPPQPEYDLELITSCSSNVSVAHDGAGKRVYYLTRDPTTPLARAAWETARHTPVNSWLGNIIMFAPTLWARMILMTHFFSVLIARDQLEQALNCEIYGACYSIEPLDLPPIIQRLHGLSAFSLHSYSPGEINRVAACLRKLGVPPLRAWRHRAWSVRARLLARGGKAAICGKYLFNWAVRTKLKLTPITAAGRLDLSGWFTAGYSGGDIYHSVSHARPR
Experiment: biochemical
One number for each entry, in µM.

Sample answers from the record:
mol_smiles=CS(=O)(=O)N(CCCC(F)(F)F)c1cc2oc(-c3ccc(F)cc3)c(C3=NOCCN3)c2cc1C1CC1 property=IC50 units_symbol=µM endpoint_result=0.036
mol_smiles=CS(=O)(=O)N(CCCc1cc(O)no1)c1cc2oc(-c3ccc(F)cc3)c(-c3ncc[nH]3)c2cc1C1CC1 property=IC50 units_symbol=µM endpoint_result=0.012
mol_smiles=CC(=O)OCCCCCN(c1cc2oc(-c3ccc(F)cc3)c(-c3ncc[nH]3)c2cc1C1CC1)S(C)(=O)=O property=IC50 units_symbol=µM endpoint_result=0.098

Consider now this further molecule.
Input: Query the reported IC50 for HCV NS5B polymerase 1a-H77-C316Y (Hepatitis C virus genotype 1a, UniProt P27958, C2736Y); item: CS(=O)(=O)N(CCCN1CCOCC1)c1cc2oc(-c3ccc(F)cc3)c(-c3ncc[nH]3)c2cc1C1CC1
Output: 0.191

---

System: HCV 1a-H77 subgenomic replicon
Test: microbe, parasite or virus in culture
Assay type: cell-based, HCV genotype 1a
Conditions: Hepatitis C virus, stable replicon, 5% FBS, absence of human plasma; read-out: Stable Replicon 1a H77 5% FBS EC50
pEC50: −log10 of the molar value.
Binary classification by pEC50, with 7 as an inclusive lower bound for T; all other cases are F.

mol_smiles=CS(=O)(=O)CCCCN(c1cc2oc(-c3ccc(Nc4ccccc4)cc3)c(-c3ncc[nH]3)c2cc1C1CC1)S(C)(=O)=O category_label=T

Input: I'd appreciate it if you could say whether CS(=O)(=O)N(CCOc1ccccc1)c1cc2oc(-c3ccc(F)cc3)c(-c3ncc[nH]3)c2cc1C1CC1 has pEC50 at least equal to 7.
Output: F

Input: I'd appreciate it if you could say whether CC(C)(O)C(=O)CCN(c1cc2oc(-c3ccc(F)cc3)c(-c3ncc[nH]3)c2cc1C1CC1)S(C)(=O)=O has pEC50 at least equal to 7.
Output: T

---

Tested on: HCV 1b-BB7 subgenomic replicon
Assay: microbe, parasite or virus in culture
Assay type: cell-based, HCV genotype 1b
Conditions: Hepatitis C virus, stable replicon, strain 1b BB7, 5% FBS + 40% human plasma; read-out: 1b BB7 5% FBS + 40% Human Plasma EC50
Hi there, I'd appreciate the recorded EC50 for every entry that follows.
One number for each entry, in nM.

Sample answers from the record:
mol_smiles=CS(=O)(=O)N(CCCN)c1cc2oc(-c3ccc(F)cc3)c(-c3ncc[nH]3)c2cc1C1CC1 target="HCV 1b-BB7 subgenomic replicon" property=EC50 endpoint_result=101
mol_smiles=CS(=O)(=O)N(CCCS(N)(=O)=O)c1cc2oc(-c3ccc(F)cc3)c(-c3ncc[nH]3)c2cc1C1CC1 target="HCV 1b-BB7 subgenomic replicon" property=EC50 endpoint_result=72
mol_smiles=CS(=O)(=O)N(CCCc1nnn[nH]1)c1cc2oc(-c3ccc(F)cc3)c(-c3ncc[nH]3)c2cc1C1CC1 target="HCV 1b-BB7 subgenomic replicon" property=EC50 endpoint_result=3690

Consider now this further compound.
Input: Query the reported EC50 for HCV 1b-BB7 subgenomic replicon; item: CS(=O)(=O)N(CCN)c1cc2oc(-c3ccc(F)cc3)c(-c3ncc[nH]3)c2cc1C1CC1
Output: 92

meta.source: patent US20160355530A1
